Biological target: T1, M. jannaschii Adriase S1A mutant with C-terminal His-tag (Methanocaldococcus jannaschii, UniProt Q57968 3-293)
T1 construct: The entry is the S1A mutant itself
T1 sequence: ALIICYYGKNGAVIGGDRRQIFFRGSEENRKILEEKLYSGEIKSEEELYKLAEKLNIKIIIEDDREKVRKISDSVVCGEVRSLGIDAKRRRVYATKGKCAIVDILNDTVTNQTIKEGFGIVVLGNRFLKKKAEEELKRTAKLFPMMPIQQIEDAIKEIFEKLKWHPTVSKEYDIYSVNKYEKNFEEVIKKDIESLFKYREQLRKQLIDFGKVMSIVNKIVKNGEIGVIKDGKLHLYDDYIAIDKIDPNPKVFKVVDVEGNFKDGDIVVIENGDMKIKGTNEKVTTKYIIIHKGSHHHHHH
Experiment: microscale thermophoresis (MST); table row (15)KDPGA(10)
Primed or numbered codes have the meaning given here. Ends that are not written are not given here. FITC′ = fluorescein isothiocyanate label; Ahx = NCCCCCC(=O)O
Parameter measured: pKd
The quantity pKd is defined as the negative base-10 logarithm of the molar concentration.

Can you share its pKd? I mean this binder: {FITC′-Ahx}-EDIGKITQAIKECLSKDPGAIDEDPFIIEL (Synthetic peptide (Genscript); also called (F15)KDPGA(10)) [(15)KDPGA(10) peptide, M. jannaschii MtrA-derived, N-terminal FITC-Ahx]
7.13
